Origin of the recorded values: patent US20210253718A1

- MEASURED ON: T1, FZD4 CRD (Homo sapiens, UniProt Q9ULV1)
- T1 construct: E42-V167; GPI anchor signal (C); expressed in transfected cells; host or cells: CHO cells, lentiviral pLenti-puro
- T1 sequence (Q9ULV1 42-167): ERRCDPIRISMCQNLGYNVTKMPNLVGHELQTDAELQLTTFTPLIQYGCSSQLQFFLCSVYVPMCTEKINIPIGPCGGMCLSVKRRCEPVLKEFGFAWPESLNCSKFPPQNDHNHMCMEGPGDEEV
- EXPERIMENT SUMMARY: Immunofluorescence of anti-FZD5 Fab binding to CHO cells overexpressing Frizzled CRD
- Design: key: −: no binding; +: very weak binder; ++: weak binder; +++: good binder; ++++: very good binder
REPORTED ENDPOINT: Immunofluorescence binding, Frizzled CRD overexpressed on CHO cells: FZD4

1. Fab-2912: anti-FZD5 Fab with antibody variable region Fv-2912; CDR SEQ ID NOs: 35, 36, 51, 90, 127, 164 (antibody, V domains shown) VH: EVQLVESGGGLVQPGGSLRLSCAASGFNISYSYIHWVRQAPGKGLEWVASISSSSGYTSYADSVKGRFTISADTSKNTAYLQMNSLRAEDTAVYYCARTVRGSKKPYFSGWAMDYWGQGTLVTVSS VL: DIQMTQSPSSLSASVGDRVTITCRASQSVSSAVAWYQQKPGKAPKLLIYSASSLYSGVPSRFSGSRSGTDFTLTISSLQPEDFATYYCQQFYFPYLITFGQGTKVEIK    ++
2. Fab-2921: anti-FZD5 Fab with antibody variable region Fv-2921; CDR SEQ ID NOs: 35, 36, 60, 98, 136, 162 (antibody, V domains shown) VH: EVQLVESGGGLVQPGGSLRLSCAASGFNISYYYIHWVRQAPGKGLEWVASIYPSSGSTSYADSVKGRFTISADTSKNTAYLQMNSLRAEDTAVYYCARGAMDYWGQGTLVTVSS VL: DIQMTQSPSSLSASVGDRVTITCRASQSVSSAVAWYQQKPGKAPKLLIYSASSLYSGVPSRFSGSRSGTDFTLTISSLQPEDFATYYCQQWYAGSLITFGQGTKVEIK    −
3. Fab-2913: anti-FZD5 Fab with antibody variable region Fv-2913; CDR SEQ ID NOs: 35, 36, 52, 91, 128, 165 (antibody, V domains shown) VH: EVQLVESGGGLVQPGGSLRLSCAASGFNISYSSIHWVRQAPGKGLEWVASIYPYSSSTSYADSVKGRFTISADTSKNTAYLQMNSLRAEDTAVYYCARYGYYGLDYWGQGTLVTVSS VL: DIQMTQSPSSLSASVGDRVTITCRASQSVSSAVAWYQQKPGKAPKLLIYSASSLYSGVPSRFSGSRSGTDFTLTISSLQPEDFATYYCQQWGVSHYLFTFGQGTKVEIK    −
